Target: Bcl-xL (Homo sapiens, UniProt Q07817)
Sequence (Q07817 whole entry): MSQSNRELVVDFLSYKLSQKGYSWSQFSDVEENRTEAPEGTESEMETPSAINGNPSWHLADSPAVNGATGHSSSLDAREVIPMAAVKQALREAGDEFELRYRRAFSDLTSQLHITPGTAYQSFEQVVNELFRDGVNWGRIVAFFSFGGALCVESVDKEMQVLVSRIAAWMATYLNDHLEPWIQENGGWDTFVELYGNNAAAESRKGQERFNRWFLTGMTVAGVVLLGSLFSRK
Assay: Bcl-xL binding affinity analysis (fluorescence polarization binding assay)
Design: scale not given here
Readout label: Bcl-XL binding affinity Ki

CNCC#Cc1cccc(CN2O[C@@H](CO)[C@@H]([C@H](C)O)[C@H]2C(=O)N[C@H]2C[C@H]3CC([C@@H]2C)C3(C)C)c1 [Compound 50] ... ♯
CC(O)C1C(CO)ON(Cc2cccc(CN(CCN(C)C)Cc3ccoc3)c2)C1C(=O)NC1CC2CC(C1C)C2(C)C (stereo not drawn) [Compound 392] ... ♯
C[C@H](O)[C@@H]1[C@H](CO)ON(Cc2cccc(CN(CCN(C)C)Cc3ccccc3)c2)[C@@H]1C(=O)N[C@H]1CCN(Cc2ccccc2)C1 [Compound 518] ... ♯
C[C@@H]1[C@@H](NC(=O)[C@@H]2[C@H]([C@H](C)O)[C@H](CO)ON2Cc2cccc(N(CCCN(C)C)Cc3ccccc3C(F)(F)F)c2)C[C@H]2C[C@@H]1C2(C)C [Compound 585] ... ♯
COc1cccc(OC)c1CN(Cc1cccc(CN2OC(CO)C(C(C)O)C2C(=O)NC2CC3CC(C2C)C3(C)C)c1)C(CC(C)C)CN(C)C (stereo not drawn) [Compound 324] ... ♯

Problem: // query Bcl-XL binding affinity Ki value for entry CC(O)C1C(CO)ON(Cc2cccc(CN(CCN3CCCCCC3)Cc3ccccc3)c2)C1C(=O)NC1CC2CC(C1C)C2(C)C (stereo not drawn) [Compound 427]
Result: ♯
